Numbers sourced from patent US20210330611A1.

The following molecules are listed with their measured inhibition at 10 µM values.
# Test system: fibrin-induced microglia activation
# method-summary: Image-based assay of fibrin-induced microglia activation (HTS and dose response)
# Assay type: cell-based, rat
# experimental-conditions: Rattus norvegicus, Microglia, read-out: Fibrin % inhibition
Please give a number only; it is taken to be in %.

Some molecules with recorded inhibition at 10 µM:
For the molecule CC(=O)Nc1nnc(S(N)(=O)=O)s1 [Acetazolamide] , what inhibition at 10 µM is on record? -12

Could you tell me which inhibition at 10 µM is on file for O=C(O)CN1C(=O)c2cccc3cccc(c23)C1=O [Alrestatin] ? 11

Name the reported inhibition at 10 µM value associated with the molecule C#CCN[C@@H]1CCc2ccccc21 [Rasagiline, reference compound] 76

Need inhibition at 10 µM of CC(C)(C)c1ccc(C(O)CCCN2CCC(C(O)(c3ccccc3)c3ccccc3)CC2)cc1 (centres unmarked) [Terfenadine] , thanks. 19

// moving on: another record for inhibition at 10 µM
Bench note: what inhibition at 10 µM did Cc1cnc(C(=O)NCCc2ccc(S(=O)(=O)NC(=O)NC3CCCCC3)cc2)cn1 [Glipizide] show? 12
